Where these numbers come from: patent US20240270821A1

Target: hGLP-1R (Homo sapiens)
Sequence (P43220 24-463): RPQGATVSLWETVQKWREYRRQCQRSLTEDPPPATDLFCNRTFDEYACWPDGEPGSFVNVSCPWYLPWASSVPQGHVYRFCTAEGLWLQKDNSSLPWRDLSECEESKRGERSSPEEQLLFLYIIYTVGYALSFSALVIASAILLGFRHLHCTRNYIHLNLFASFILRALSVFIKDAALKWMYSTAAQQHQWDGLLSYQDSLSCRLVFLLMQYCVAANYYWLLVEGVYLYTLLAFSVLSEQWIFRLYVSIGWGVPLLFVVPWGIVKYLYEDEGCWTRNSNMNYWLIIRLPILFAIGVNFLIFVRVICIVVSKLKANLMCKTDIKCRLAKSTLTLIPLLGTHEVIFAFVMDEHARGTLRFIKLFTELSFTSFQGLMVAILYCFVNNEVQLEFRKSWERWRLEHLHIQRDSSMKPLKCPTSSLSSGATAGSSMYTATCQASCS
Assay: Functional cAMP activity in the presence of 1% HSA
Format: cell-based
Settings: read-out: cAMP Rel EC50, hGLP-1R
Starred links: 1 amine or outer side, 2 acyl side, 3 side chain; linkers in the order of their positions; H or OH if unused. Non-standard residues stand in square brackets, D forms with d. Groups on a side chain read outwards from the residue. *: point of attachment. C20 diacid = O=C(O)CCCCCCCCCCCCCCCCCCC(=O)*; C18 diacid = O=C(O)CCCCCCCCCCCCCCCCC(=O)*; αMePhe(2-F) = C[C@](N)(Cc1ccccc1F)C(=O)O; γGlu = O=C(O)[C@H](CCC(=O)[*:2])N[*:1]; αMe4Pal = C[C@](N)(Cc1ccncc1)C(=O)O; αMeY = C[C@](N)(Cc1ccc(O)cc1)C(=O)O; 4Pal = N[C@@H](Cc1ccncc1)C(=O)O; αMeL = CC(C)C[C@](C)(N)C(=O)O; Orn = NCCC[C@H](N)C(=O)O; AEEA = NCCOCCOCC(=O)O; Aib = CC(C)(N)C(=O)O
The reader will find reported log10 of EC50 values listed item by item below.
Recorded EC50 (log10, nM)

Solved cases (10 shown):
{"Substance": "H-Y[Aib]QGTFTSDFS[Orn][αMeL]LDKK([AEEA-γGlu-C18 diacid])AQ[Aib]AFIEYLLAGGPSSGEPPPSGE-NH2 [Example 97]", "Subject of test": "hGLP-1R (Homo sapiens)", "log10 of EC50": 2.78}
{"Substance": "H-Y[Aib]QGT[αMePhe(2-F)]TSD[4Pal]SILLDKK([AEEA-γGlu-C18 diacid])AQ[Aib]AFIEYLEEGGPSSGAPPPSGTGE-NH2 [Example 662]", "Subject of test": "hGLP-1R (Homo sapiens)", "log10 of EC50": 1.93}
{"Substance": "H-Y[Aib]QGTFTSD[4Pal]SQ[αMeL]LDKK([γGlu-γGlu-C18 diacid])AQ[Aib]AFIE[αMeY]LLEGGPSSGAPPPSGS-NH2 [Example 938]", "Subject of test": "hGLP-1R (Homo sapiens)", "log10 of EC50": 2.42}
{"Substance": "H-Y[Aib]QGTFTSDYSK[αMeL]LDKK([AEEA-γGlu-C18 diacid])AQ[Aib]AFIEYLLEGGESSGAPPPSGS-NH2 [Example 358]", "Subject of test": "hGLP-1R (Homo sapiens)", "log10 of EC50": 2.69}
{"Substance": "H-Y[Aib]QGT[αMePhe(2-F)]TSDYSILLDKQAQK([AEEA-AEEA-γGlu-C20 diacid])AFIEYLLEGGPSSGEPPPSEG-NH2 [Example 345]", "Subject of test": "hGLP-1R (Homo sapiens)", "log10 of EC50": 2.41}
{"Substance": "H-Y[Aib]QGT[αMePhe(2-F)]TSD[4Pal]SI[αMeL]LD[Orn]K([AEEA-γGlu-C18 diacid])AQ[αMe4Pal][Orn]FI[dE][αMeY]LIEGGPSSGEPPPSGS-NH2 [Example 706]", "Subject of test": "hGLP-1R (Homo sapiens)", "log10 of EC50": 1.37}
{"Substance": "H-Y[Aib]QGT[αMePhe(2-F)]TSD[4Pal]SILLDKQAQK([AEEA-AEEA-γGlu-C20 diacid])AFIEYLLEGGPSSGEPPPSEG-NH2 [Example 347]", "Subject of test": "hGLP-1R (Homo sapiens)", "log10 of EC50": 2.40}
{"Substance": "H-Y[Aib]QGTFTSD[4Pal]SQ[αMeL]LDKK([AEEA-γGlu-C18 diacid])AQ[Aib]AFIEYLLE[dA]GPSS[Aib]APPPSGT-NH2 [Example 824]", "Subject of test": "hGLP-1R (Homo sapiens)", "log10 of EC50": 2.54}
{"Substance": "H-Y[Aib]QGTFTSD[4Pal]S[Orn][αMeL]LD[Orn]K([γGlu-γGlu-C18 diacid])AQ[αMe4Pal]AFIEYLIE[Aib]GPSSGAPPPSGS-NH2 [Example 939]", "Subject of test": "hGLP-1R (Homo sapiens)", "log10 of EC50": 2.46}
{"Substance": "H-Y[Aib]QGTFTSD[4Pal]SQ[αMeL]LD[Orn]K([γGlu-γGlu-C18 diacid])AQ[αMe4Pal]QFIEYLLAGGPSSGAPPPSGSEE-NH2 [Example 1006]", "Subject of test": "hGLP-1R (Homo sapiens)", "log10 of EC50": 2.76}

Next item in the queue.
Data request: Identify the reported log10 of EC50 for the following entry. H-Y[Aib]QGTFTSDFS[Orn][αMeL]LDKK([γGlu-γGlu-C18 diacid])AQ[Aib]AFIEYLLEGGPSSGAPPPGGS-NH2 [Example 198]
Data returned: 2.88
